These entries and their values trace back to paper PMC3827223.

- system-under-test: recombinant human MET (Homo sapiens, UniProt P08581)
- Sequence (P08581 25-1390): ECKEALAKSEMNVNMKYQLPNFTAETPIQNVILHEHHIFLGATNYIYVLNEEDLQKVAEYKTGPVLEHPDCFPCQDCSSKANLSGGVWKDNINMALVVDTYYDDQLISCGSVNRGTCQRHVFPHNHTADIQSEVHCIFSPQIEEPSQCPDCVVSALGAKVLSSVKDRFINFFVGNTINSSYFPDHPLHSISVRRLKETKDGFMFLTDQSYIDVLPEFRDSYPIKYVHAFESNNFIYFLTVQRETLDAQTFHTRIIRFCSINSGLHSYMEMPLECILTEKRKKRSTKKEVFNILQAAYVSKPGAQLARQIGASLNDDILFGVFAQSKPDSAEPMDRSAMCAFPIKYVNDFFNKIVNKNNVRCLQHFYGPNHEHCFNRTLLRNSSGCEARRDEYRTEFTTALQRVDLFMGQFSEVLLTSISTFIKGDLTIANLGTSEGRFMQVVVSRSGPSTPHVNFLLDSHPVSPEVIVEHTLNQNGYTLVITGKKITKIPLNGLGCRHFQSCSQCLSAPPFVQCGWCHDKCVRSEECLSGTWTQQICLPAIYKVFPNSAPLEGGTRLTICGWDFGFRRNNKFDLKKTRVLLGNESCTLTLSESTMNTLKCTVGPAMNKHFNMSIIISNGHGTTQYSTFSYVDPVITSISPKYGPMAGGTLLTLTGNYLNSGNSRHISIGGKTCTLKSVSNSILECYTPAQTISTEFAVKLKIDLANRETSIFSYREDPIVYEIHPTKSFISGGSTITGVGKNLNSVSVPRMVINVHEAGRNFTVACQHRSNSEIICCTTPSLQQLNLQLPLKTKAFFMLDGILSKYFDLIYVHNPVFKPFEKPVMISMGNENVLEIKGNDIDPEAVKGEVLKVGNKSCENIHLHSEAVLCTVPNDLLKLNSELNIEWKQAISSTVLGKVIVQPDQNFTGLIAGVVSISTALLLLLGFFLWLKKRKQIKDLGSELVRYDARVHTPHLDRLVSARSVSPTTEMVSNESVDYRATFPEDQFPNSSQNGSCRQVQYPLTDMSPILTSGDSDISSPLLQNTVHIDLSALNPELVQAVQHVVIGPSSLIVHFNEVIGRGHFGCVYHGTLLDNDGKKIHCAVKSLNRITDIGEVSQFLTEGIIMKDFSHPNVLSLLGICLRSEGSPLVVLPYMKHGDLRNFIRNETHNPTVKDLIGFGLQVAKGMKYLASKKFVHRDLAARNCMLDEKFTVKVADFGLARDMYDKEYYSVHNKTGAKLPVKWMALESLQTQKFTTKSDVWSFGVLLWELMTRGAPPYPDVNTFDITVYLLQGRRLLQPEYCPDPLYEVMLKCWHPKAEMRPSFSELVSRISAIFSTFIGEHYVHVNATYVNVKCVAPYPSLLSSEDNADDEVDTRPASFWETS
- method-description: z'-LYTE FRET kinase activity assay, MET
pIC50: −log10 of the molar value.
# pIC50 per record follows

>  <molecule>
COc1cc2c(Oc3ccc(NC(=O)C4(C(=O)Nc5ccc(F)cc5)CC4)cc3F)ccnc2cc1OCCCN1CCN(C(=O)CCc2ccc3n2[B-](F)(F)[N+]2=C(C)C=C(C)C2=C3)CC1

>  <pIC50>
6.16

$$$$
>  <molecule>
COc1cc2c(Oc3ccc(NC(=O)C4(C(=O)Nc5ccc(F)cc5)CC4)cc3F)ccnc2cc1OCCCN1CCN(C(=O)OC2CC/C=C/CCC2)CC1 (stereo not drawn)

>  <pIC50>
7.05

$$$$
>  <molecule>
O=C(NCCn1cc(-c2cnc3nnn(Cc4ccc5ncccc5c4)c3n2)cn1)OC1CC/C=C/CCC1 (stereo not drawn)

>  <pIC50>
8.83

$$$$
